# System: IGROV1 ovarian
# experimentalProtocol: NCI tumour cell line growth inhibition, 48 h
Numbered stars: 1 amine (or outer) side, 2 acyl side, 3 side chain; on linkers, the order of the positions; unused ones are H or OH. Bridge positions count the residues as written; N and C are the ends. Square brackets hold non-standard residues; d marks the D form. Peptide text beside a SMILES is read from it. I, II: the chains in the order shown. Actinocin(1to9) = Cc1c2oc3c(C)ccc(C(=O)[*:2])c3nc-2c(C(=O)[*:1])c(N)c1=O; NMeV = CN[CH](C(=O)O)C(C)C; Sar = CNCC(=O)O
metric: TGI

Task: Which value of TGI has been reported for CC(=O)c1cccc(NC(=O)/C(=N\NC(=S)NN)C2C(=O)Nc3ccccc3S2=O)c1 (configuration not stated) in the records?
Output: > 100 µM

Task: Record: CCCCCCCCCCCCCCCC(N)c1ccccc1 (configuration not stated)
Output: 3.44 µM

Task: Record: CC(=O)Oc1cc2c(n(C)c1=O)CCC2
Output: > 100 µM

Task: Record: CCCNC(=O)c1cc(NC(=O)c2cc(NC(=O)CCS(=O)(=O)OC)cn2C)cn1C
Output: > 56.5 µM

Task: Record: CC(=O)Nc1ccc(OCC(O)CO)cc1 (configuration not stated)
Output: > 100 µM

Task: Record: O=C(CC(C(=O)c1cccs1)c1ccccc1)c1ccccc1O (configuration not stated)
Output: > 57.3 µM

Task: Record: Cc1c(C(=O)Nc2ccc(Cl)cc2)nc(N)nc1-c1cccc(Cl)c1
Output: > 100 µM

Task: Record: Fc1ccc(C(OCCN2CCC3CCC(C2)N3C/C=C/c2cccnc2)c2ccc(F)cc2)cc1 (configuration not stated)
Output: 27.1 µM

Task: Record: CC1(C)N=C(N)N=C(N)N1CCCCc1ccccc1
Output: > 100 µM

Task: Record: N=c1oc2ccc(Cl)cc2cc1C(=O)NC1CCCCC1
Output: > 100 µM

Task: Record: COc1ccc(-c2cc3c(N)ncnc3o2)cc1
Output: > 25 µM

Task: Record: OCC1(CNc2cc(Cl)ncn2)CCC1
Output: > 100 µM

Task: Record: Cc1ccc(C)c(C(=N)c2ccccc2Cc2ccccc2)c1
Output: > 100 µM

Task: Record: COc1cc(C2S/C(=C/c3ccccc3)C(=O)N2c2ccccn2)cc(OC)c1OC (configuration not stated)
Output: 29.9 µM

Task: Record: CC1CC2(C)CC(=O)C1C1C(=O)N(CCN3CCOCC3)C(=O)C12 (configuration not stated)
Output: > 100 µM

Task: Record: C/C=C1/C(=O)O[C@]23C=C[C@@H]4C(C(=O)OC)=CO[C@H](O[C@@H]12)[C@@H]43
Output: 4.88 µM

Task: Record: CCO/N=C(/CC)c1ccc(Br)s1
Output: > 100 µM

Task: Record: CC(C)(C)OC(=O)CC(NC(=O)OC(C)(C)C)C(=O)Oc1ccc([N+](=O)[O-])cc1 (configuration not stated)
Output: > 100 µM

Task: Record: COc1ccc(/C=C2\CC3C4CC=C5C[C@@H](O)CC[C@]5(C)C4CC[C@]3(C)C2=O)cc1OC (some centres not stated)
Output: > 100 µM

Task: Record: COc1cc2c(cc1OC)C(=O)N1CCCC1C(=O)S2 (configuration not stated)
Output: > 100 µM

Task: Record: CCC(C)C1NC(=O)C(NC(=O)c2c3nc4c(C(=O)NC5C(=O)NC(C(C)C)C(=O)N6CCCC6C(=O)N(C)CC(=O)N(C)C(C(C)C)C(=O)OC5C)ccc(C)c4oc-3c(C)c(=O)c2N)C(C)OC(=O)C(C(C)C)N(C)C(=O)CN(C)C(=O)C2CCCN2C1=O (configuration not stated) (I: TIP[Sar][NMeV] / II: TVP[Sar][NMeV]; ester I:1-I:C, II:1-II:C; linker I:N-II:N via Actinocin(1to9); configuration not given here)
Output: 0.906 µM

Task: Record: O=C(CSCC(=O)N/N=C/c1ccncc1)N/N=C/c1ccncc1
Output: > 100 µM

Task: Record: CC1CC(c2ccc([N+](=O)[O-])cc2)=Nc2ccccc2S1=O (configuration not stated)
Output: 31.8 µM

Task: Record: NCCSc1nc(N)c2ncn(C3OC(CO)C(O)C3O)c2n1 (configuration not stated)
Output: > 100 µM

Task: Record: Nc1c(O)c(C(=O)O)cc2ccccc12
Output: > 100 µM

Task: Record: CC1=C(C(=O)NCc2ccccc2)C(c2ccccc2O)C(C(=O)NCc2ccccc2)=C(C)N1
Output: 39 µM

Task: Record: O=c1ccc2nc3ccc(O)cc3oc-2c1
Output: > 100 µM

Task: Record: C=C1C(OCCO)OC2O[C@]3(C)CCC4[C@H](C)CCC1C24OO3 (some centres not stated)
Output: 34.9 µM

Task: Record: NC(=S)N=Nc1c(O)[nH]c2ccccc12
Output: 477 µM

Task: Record: COc1cc2c(cc1O)N=C[C@@H]1CCC(O)N1C2=O (mixture of isomers)
Output: 75.5 µM

Task: Record: CCN(CC)c1ccc2cc(-c3csc(-c4ccc(N(C)C)cc4)n3)c(=O)oc2c1
Output: > 100 µM

Task: Record: CC(=O)Nc1ccccc1S(=O)c1ccccc1 (configuration not stated)
Output: > 100 µM

Task: Record: NC(=O)N=Nc1c2ccccc2n2[nH]ccc12
Output: > 100 µM

Task: Record: COc1cc2c3c4c1OCc1c5c(cc(c1-4)CC3[N+](C)(C)CC2)OCO5 (configuration not stated)
Output: > 100 µM

Task: Record: COc1cccc(-c2cc(=O)c3cc(N4CCCC4)ccc3[nH]2)c1
Output: > 10 µM

Task: Record: C#CC1(O)CC(c2ccccc2)N(C)C(c2ccccc2)C1 (configuration not stated)
Output: > 100 µM

Task: Record: CCN(CC)c1ccc(N=C2C=CC(=C(C#N)C#N)c3ccccc32)c(C)c1
Output: 8.86 µM

Task: Record: C=C(C)COC(=O)COCC(=O)OCC(=C)C
Output: > 100 µM

Task: Record: CCOC(=O)c1c[nH]c2cc3c(cc2c1=O)CCS3
Output: > 100 µM

Task: Record: Nc1ccc2c(c1)S(=O)(=O)c1cc(N)ccc1-2
Output: > 100 µM

Task: Record: CCCCCCCCC(=O)NCCN(CCN)C(=O)CCCCCCCC
Output: 19.5 µM

Task: Record: CCNC(CCCC(NCC)P(=O)(O)O)P(=O)(O)O (configuration not stated)
Output: > 100 µM

###

I'd appreciate it if you could supply log10(TGI) values for the items below.
# Test system: HL-60(TB) leukemia
# experimentalProtocol: NCI tumour cell line growth inhibition, 48 h
Recorded TGI (log10, µM)

Task: So what log10(TGI) did Cn1c(=O)c2[nH]cnc2n(C)c1=O.[CH2-]C(Cc1cccc2cc(C(=O)O)c(=O)oc12)OC.[Hg+2].[OH-] (stereo not drawn) get with HL-60(TB) leukemia?
Output: 1.77

Task: Record: N#C/C=C\c1ccc(-c2cc(C(F)(F)F)cc(C(F)(F)F)c2)o1
Output: 1.62

Task: Record: CN1CCN(Cc2ccc(NC(=O)c3cncc(C#Cc4ncc5ccccn45)c3)cc2C(F)(F)F)CC1
Output: 0.44

Task: Record: N#Cc1c(Nc2ccccc2)[n+]([O-])c2ccc(Cl)cc2[n+]1[O-]
Output: 1.08

Task: Record: COc1cc(OC)c2c(c1Cl)O[C@]1(C2=O)C(OCc2ccccc2)=CC(=O)C[C@H]1C
Output: 0.55

Task: Record: CC(=O)Oc1ccc2c3c1[C@@H]1O[C@@H]1c1cccc(c1-3)[C@@H]1O[C@H]21
Output: 0.69

Task: Record: C=C1CC(CC(=O)C(C)CC2CC(=C)C(=O)O2)OC1=O (stereo not drawn)
Output: 1.53

Task: Record: O=C(N1CCN(c2ccccc2)CC1)N(C(=O)C1(c2ccc(Cl)cc2)CCCC1)S(=O)(=O)c1ccccc1
Output: 1.83

Task: Record: CC(=O)Nc1cc(CN2CCCCC2)c(O)c2ncccc12
Output: 1.57

Task: Record: CCCCCCCCCCCCCCCC(N)c1ccccc1 (stereo not drawn)
Output: 0.48

Task: Record: O=c1c2cc([N+](=O)[O-])cnc2sn1-c1ccc(Br)cc1
Output: 1.91

Task: Record: CSc1nc(-c2cccc(NC(=O)CCl)c2)c(C#N)c(=O)n1C
Output: 0.69

Task: Record: C/C(CC(O)(C(F)(F)F)C(F)(F)F)=N/Nc1ccc([N+](=O)[O-])cc1[N+](=O)[O-]
Output: 0.90

Task: Record: O=C1NC(=O)C2(CCc3ccc(N(CCCl)CCCl)cc32)N1 (stereo not drawn)
Output: 0.99

Task: Record: C=C1C(OCCO)OC2O[C@]3(C)CCC4[C@H](C)CCC1C24OO3 (stereo partly drawn)
Output: 1.19

Task: Record: Cn1c2c(c3c(=O)[nH]ncc31)CCCc1ccccc1-2
Output: 1.21

Task: Record: COc1ccc(-c2cc(=O)c3cccnc3[nH]2)cc1
Output: 1.76

Task: Record: Cc1ccc(SSCCCCS(=O)O)cc1
Output: 1.31

Task: Record: NC(=O)N=Nc1c2ccccc2n2[nH]ccc12
Output: 1.76
